Answer each item with its documented Hs18S ΔCT.
System: HCT-8 host cells (Hs18S)
condition-info: human, 41 h, 10 μM
Structures can show the parent of a compound that is named as a salt.
Write the number on its own, no unit after it.

Req: Lab note: need Hs18S ΔCT with HCT-8 host cells (Hs18S) for entry Nc1nc2ncc(CNc3ccc(C(=O)N[C@@H](CCC(=O)O)C(=O)O)cc3)nc2c(=O)[nH]1 [FOLIC ACID] , please look it up.
Resp: 0.02

Req: Lab note: need Hs18S ΔCT with HCT-8 host cells (Hs18S) for entry O=c1c(O)cc([C@H]2Oc3cc(O)cc(O)c3C[C@H]2O)cc2c([C@H]3Oc4cc(O)cc(O)c4C[C@H]3O)cc(O)c(O)c12 [THEAFLAVIN] , please look it up.
Resp: 0.11

Req: Lab note: need Hs18S ΔCT with HCT-8 host cells (Hs18S) for entry Cc1ccc2c(c1)CC[C@H]1CC(=O)CC[C@]21C , please look it up.
Resp: -0.03

Req: Lab note: need Hs18S ΔCT with HCT-8 host cells (Hs18S) for entry COc1cc(O)c(C)c(O)c1 [2,6-DIHYDROXY-4-METHOXYTOLUENE] , please look it up.
Resp: 0.06

Req: Lab note: need Hs18S ΔCT with HCT-8 host cells (Hs18S) for entry CC(C)=CCc1c2c(c3occ(-c4ccc(O)c(O)c4)c(=O)c3c1O)C=CC(C)(C)O2 [POMIFERIN] , please look it up.
Resp: 6.42

Req: Lab note: need Hs18S ΔCT with HCT-8 host cells (Hs18S) for entry COC(=O)c1c(OC)cc2c(c1C)Oc1c(Cl)c(O)c(Cl)c(C)c1C(=O)O2 [GANGALEOIDIN] , please look it up.
Resp: -0.05

Req: Lab note: need Hs18S ΔCT with HCT-8 host cells (Hs18S) for entry COc1ccc2c(c1)OCC(Cc1ccc(OC)c(OC(C)=O)c1)C2=O (stereo not shown) , please look it up.
Resp: 0.24

Req: Lab note: need Hs18S ΔCT with HCT-8 host cells (Hs18S) for entry NCCSSCCN [CYSTAMINE DIHYDROCHLORIDE] , please look it up.
Resp: -0.15

Req: Lab note: need Hs18S ΔCT with HCT-8 host cells (Hs18S) for entry COc1ccc2c(=O)c(CC(=O)O)coc2c1 [ANHYDROBRAZILIC ACID] , please look it up.
Resp: -0.01

Req: Lab note: need Hs18S ΔCT with HCT-8 host cells (Hs18S) for entry COc1ccc(C(=O)O)c(O)c1OC [2-HYDROXY-3,4-DIMETHOXYBENZOIC ACID] , please look it up.
Resp: 0.16

Req: Lab note: need Hs18S ΔCT with HCT-8 host cells (Hs18S) for entry COc1ccc([C@H]2Oc3cc(OC)cc(OC)c3C[C@H]2O)cc1 [EPIAFZELECHIN TRIMETHYL ETHER] , please look it up.
Resp: 0.21

Req: Lab note: need Hs18S ΔCT with HCT-8 host cells (Hs18S) for entry O=c1c(-c2ccc(O)cc2)coc2cc(O)ccc12 [DAIDZEIN] , please look it up.
Resp: 0.01

Req: Lab note: need Hs18S ΔCT with HCT-8 host cells (Hs18S) for entry OCC(O)C(O)C(O)C(O)C(O)CO (stereo not shown) [PERSEITOL] , please look it up.
Resp: -0.23

Req: Lab note: need Hs18S ΔCT with HCT-8 host cells (Hs18S) for entry CC1=C(/C=C/C(C)=C/C=C/C(C)=C/C(=O)O)C(C)(C)CCC1 [TRETINOIN] , please look it up.
Resp: -0.28

Req: Lab note: need Hs18S ΔCT with HCT-8 host cells (Hs18S) for entry COc1ccc([C@@H]2CC(=O)c3c(O)cc(O)cc3O2)cc1O [HESPERETIN] , please look it up.
Resp: -0.02

Req: Lab note: need Hs18S ΔCT with HCT-8 host cells (Hs18S) for entry NCCc1ccc(O)cc1 [TYRAMINE] , please look it up.
Resp: -0.27

Req: Lab note: need Hs18S ΔCT with HCT-8 host cells (Hs18S) for entry COc1ccc(C(C)=O)c(OC)c1 [PEONOL METHYL ETHER] , please look it up.
Resp: -0.31

Req: Lab note: need Hs18S ΔCT with HCT-8 host cells (Hs18S) for entry NC[C@H]1O[C@H](O[C@H]2[C@H](O)[C@@H](O[C@H]3O[C@H](CO)[C@@H](O)[C@H](N)[C@H]3O)[C@H](N)C[C@@H]2N)[C@H](N)[C@@H](O)[C@@H]1O [BEKANAMYCIN SULFATE] , please look it up.
Resp: 0.13

Req: Lab note: need Hs18S ΔCT with HCT-8 host cells (Hs18S) for entry COc1ccc2c(=O)ccoc2c1 [7-METHOXYCHROMONE] , please look it up.
Resp: -0.34

Req: Lab note: need Hs18S ΔCT with HCT-8 host cells (Hs18S) for entry COc1cc(O)cc(OC)c1OC [ANTIAROL] , please look it up.
Resp: 0.10

Req: Lab note: need Hs18S ΔCT with HCT-8 host cells (Hs18S) for entry CC1=CC(=O)c2ccccc2C1=O [MENADIONE] , please look it up.
Resp: 0.49

Req: Lab note: need Hs18S ΔCT with HCT-8 host cells (Hs18S) for entry O=C(O)CCCCCCCCCCCC[C@@H]1C=CCC1 [CHAULMOOGRIC ACID] , please look it up.
Resp: -0.58

Req: Lab note: need Hs18S ΔCT with HCT-8 host cells (Hs18S) for entry CC(C)c1ccc2c(c1)CC[C@H]1[C@](C)(CN)CCC[C@]21C [18-AMINOABIETA-8,11,13-TRIENE SULFATE] , please look it up.
Resp: -0.19

Req: Lab note: need Hs18S ΔCT with HCT-8 host cells (Hs18S) for entry N[C@@H](Cc1cc(I)c(Oc2cc(I)c(O)c(I)c2)c(I)c1)C(=O)O [LEVOTHYROXINE] , please look it up.
Resp: -0.03

Req: Lab note: need Hs18S ΔCT with HCT-8 host cells (Hs18S) for entry CC(=O)O[C@H]1C[C@@]2(C)[C@@H](C[C@@H](O)[C@H]3[C@@]4(C)CC[C@@H](O)[C@@H](C)[C@@H]4CC[C@@]32C)/C1=C(\CCC=C(C)C)C(=O)O [FUSIDIC ACID] , please look it up.
Resp: -0.30

Req: Lab note: need Hs18S ΔCT with HCT-8 host cells (Hs18S) for entry C=CC[C@@H]1/C=C(\C)C[C@H](C)C[C@H](OC)[C@H]2O[C@@](O)(C(=O)C(=O)N3CCCC[C@H]3C(=O)O[C@H](/C(C)=C/[C@@H]3CC[C@@H](O)[C@H](OC)C3)[C@H](C)[C@@H](O)CC1=O)[C@H](C)C[C@@H]2OC [TACROLIMUS] , please look it up.
Resp: 0.16

Req: Lab note: need Hs18S ΔCT with HCT-8 host cells (Hs18S) for entry O=C(/C=C/c1ccc(O)c(O)c1)O[C@H](Cc1ccc(O)c(O)c1)C(=O)O [ROSMARINIC ACID] , please look it up.
Resp: -0.04

Req: Lab note: need Hs18S ΔCT with HCT-8 host cells (Hs18S) for entry COC(=O)CC[C@@H](C)[C@H]1CC[C@H]2[C@@H]3CC[C@@H]4C[C@H](O)CC[C@]4(C)[C@H]3C[C@H](O)[C@]12C [METHYL DEOXYCHOLATE] , please look it up.
Resp: 0.66

Req: Lab note: need Hs18S ΔCT with HCT-8 host cells (Hs18S) for entry COc1cc(C)c(C(=O)Oc2cc(C)c(C(=O)O)c(O)c2C)c(OC)c1C [DIFFRACTAIC ACID] , please look it up.
Resp: 0.91

Req: Lab note: need Hs18S ΔCT with HCT-8 host cells (Hs18S) for entry COc1ccc(-c2cc(=O)c3c(OC)c(OC)c(OC)cc3o2)cc1OC [SINENSETIN] , please look it up.
Resp: 0.39

Req: Lab note: need Hs18S ΔCT with HCT-8 host cells (Hs18S) for entry COC1=CC(=O)C(O)=C/C1=C\C=C\c1ccccc1 [OBTUSAQUINONE] , please look it up.
Resp: 0.84

Req: Lab note: need Hs18S ΔCT with HCT-8 host cells (Hs18S) for entry COc1ccc2c(c1OC)C(=O)O[C@@H]2[C@H]1c2c(cc3c(c2OC)OCO3)CCN1C [NOSCAPINE HYDROCHLORIDE] , please look it up.
Resp: 0.30

Req: Lab note: need Hs18S ΔCT with HCT-8 host cells (Hs18S) for entry C=CC(C1=CC(=O)C=CC1=O)c1ccccc1 (stereo not shown) [DALBERGIONE] , please look it up.
Resp: 0.33

Req: Lab note: need Hs18S ΔCT with HCT-8 host cells (Hs18S) for entry OC[C@H]1O[C@@H](Oc2cc(O)cc(/C=C/c3ccc(O)cc3)c2)[C@H](O)[C@@H](O)[C@@H]1O [PICEID] , please look it up.
Resp: -0.36

Sourced from paper PMC6736568
